Ref: patent US3984543A

experiment: Sequestration of calcium (modified Hampshire test); assay type: physicochemical; details: 1 gm sequestering agent in 50 ml H2O, pH 11; until CaCO3 precipitate redissolved
attribute measured: Consumption of Sequestering Agent Solution (mL)
Use mL as the unit, but write only the number.

Consider the following illustrative entries.
compound: NC1(P(=O)(O)O)CCC(=O)NP1(=O)O (stereo not drawn) [n=2, R=H]
measurement: 2.6

compound: CCNC1(P(=O)(O)O)CCC(=O)N(CC)P1(=O)O (stereo not drawn) [n=2, R=C2 H5]
measurement: 2.25

compound: NC1(P(=O)(O)O)CCCC(=O)NP1(=O)O (stereo not drawn) [n=3, R=H]
measurement: 3.1

compound: NC1(P(=O)(O)O)CC(=O)NP1(=O)O (stereo not drawn) [n=1, R=H]
measurement: 2.6

GET /values?readout=Consumption of Sequestering Agent Solution&item= CNC1(P(=O)(O)O)CCCC(=O)N(C)P1(=O)O (stereo not drawn) [n=3, R=CH3]
3.8

GET /values?readout=Consumption of Sequestering Agent Solution&item= CNC1(P(=O)(O)O)CCC(=O)N(C)P1(=O)O (stereo not drawn) [n=2, R=CH3]
3.0
